Test: Oral bioavailability in rat at 10 mg/kg
Assay type: ADME, organism-based
Conditions: in vivo
outcome.measure: bioavailability

>>> df
               record_smiles  experimental_result
0  CCc1cccc(CC)c1Cc1ncc[nH]1                  17%

---

Assay: Half life in rat at 10 mg/kg, po
Type: ADME, organism-based
Design: dose 10 mg/kg, route oral
Settings: in vivo
outcome.measure: half-life

In [3]: df
Out[3]:
               record_smiles  experimental_result
0  CCc1cccc(CC)c1Cc1ncc[nH]1                4.9 h

---

Tested on: Liver
Experiment: Intrinsic clearance in mouse liver microsomes assessed per mg protein
Assay type: ADME, Microsome
outcome.measure: CLint (µL/min/mg)

>>> df
                     record_smiles  experimental_result
0  CC(C)N(Cc1cnc[nH]1)c1ccc(Cl)cc1                 17.5

---

Experiment: Half life in mouse at 10 mg/kg, po
Assay type: ADME, organism-based
Design: dose 10 mg/kg, route oral
Settings: in vivo
outcome.measure: half-life

>>> print(df.to_string())
                     record_smiles  experimental_result
0  CC(C)N(Cc1cnc[nH]1)c1ccc(Cl)cc1                1.8 h

---

Assay: Ratio of drug level in brain to plasma in rat at 4.8 mg/kg, iv
Format: ADME, organism-based
Set-up: dose 4.8 mg/kg, route intravenous
Conditions: brain and plasma, read-out: BPR
outcome.measure: Kp

>>> df
                     record_smiles  outcome_measure  experimental_result
0  CC(C)N(Cc1cnc[nH]1)c1ccc(Cl)cc1               Kp                  6.6

---

Test: Inhibition of human I1 receptor by CEREP assay
outcome.measure: Ki (nM)

In [3]: df
Out[3]:
               record_smiles  outcome_measure  experimental_result
0  CCc1cccc(CC)c1Cc1ncc[nH]1               Ki                  660

---

Assay: Ratio of drug level in brain to plasma in mouse at 5 mg/kg, iv
Assay type: ADME, organism-based
Parameters: dose 5 mg/kg, route intravenous
Conditions: brain and plasma, read-out: BPR
outcome.measure: Kp

                     record_smiles  experimental_result
0  CC(C)N(Cc1cnc[nH]1)c1ccc(Cl)cc1                  0.6

---

Assay: Inhibition of alpha 2 adrenergic receptor by CEREP assay
outcome.measure: Ki (µM)

>>> df
               record_smiles  value_unit  experimental_result
0  CCc1cccc(CC)c1Cc1ncc[nH]1          µM                  2.4

---

Target: Trace amine-associated receptor 1 (Mus musculus)
Sequence (Q923Y8 whole entry): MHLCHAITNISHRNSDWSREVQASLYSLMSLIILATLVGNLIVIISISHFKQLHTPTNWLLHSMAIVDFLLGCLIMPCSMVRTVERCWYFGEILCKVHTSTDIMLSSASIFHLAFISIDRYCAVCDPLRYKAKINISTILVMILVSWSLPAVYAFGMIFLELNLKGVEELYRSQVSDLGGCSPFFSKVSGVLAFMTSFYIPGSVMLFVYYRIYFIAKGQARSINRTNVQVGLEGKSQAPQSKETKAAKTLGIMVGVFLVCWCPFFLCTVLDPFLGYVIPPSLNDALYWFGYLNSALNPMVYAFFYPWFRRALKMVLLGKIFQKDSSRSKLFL
Assay: Agonist activity at mouse TAAR1 receptor expressed in HEK293 cells after 30 mins
outcome.measure: EC50

>>> df
                     record_smiles  experimental_result
0  CC(C)N(Cc1cnc[nH]1)c1cccc(Cl)c1                10 nM
1      CC(C)N(Cc1cnc[nH]1)c1ccccc1                28 nM
2  CC(C)N(Cc1ncc[nH]1)c1cccc(Cl)c1               500 nM
3  COc1cccc(N(Cc2cnc[nH]2)C(C)C)c1                72 nM
